Reported one-hybrid fitness for binding NBS DNA values follow for various variants
B1: Caulobacter ParB omega fusion; a variant is named by its letters at X, in order, B8GW30 (parent)
chain: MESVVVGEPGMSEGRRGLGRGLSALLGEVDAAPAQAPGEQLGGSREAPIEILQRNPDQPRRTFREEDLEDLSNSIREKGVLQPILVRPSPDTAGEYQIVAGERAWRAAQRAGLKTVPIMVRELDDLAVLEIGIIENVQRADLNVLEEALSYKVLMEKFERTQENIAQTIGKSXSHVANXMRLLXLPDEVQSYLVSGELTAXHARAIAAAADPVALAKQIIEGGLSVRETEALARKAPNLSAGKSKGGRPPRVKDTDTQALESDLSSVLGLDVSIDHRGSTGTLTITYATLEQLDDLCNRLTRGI

- Variants of: B1
- test: one-hybrid fitness for binding NBS DNA (the Noc-binding site; scaled: cognate 1, non-cognate 0); higher = stronger binding
- condition-label: with NBS DNA site
Whole data set: some 81,000 sequences, median “one-hybrid fitness for binding NBS DNA” near -0.1, cut for the highest 2% near 0.36. The list comes from a sample in which the highest values are over-represented; it also holds close analogues and randomly drawn sequences.

>>> result_value("IHRR")
"≤ 0.2"

Request: Look up one-hybrid fitness for binding NBS DNA for this variant: RVAS
Response: 0.358

Request: Now consider HWMG and answer again.
Response: ≤ 0.2

Request: Now consider SEDT and answer again.
Response: ≤ 0.2

Request: Now consider PGTF and answer again.
Response: ≤ 0.2

Request: Now consider MCRV and answer again.
Response: ≤ 0.2
